Ref: paper PMC8865417

- Subject Of Test: human 5-HT2A receptor (Homo sapiens, UniProt P28223)
- Sequence (P28223 whole entry): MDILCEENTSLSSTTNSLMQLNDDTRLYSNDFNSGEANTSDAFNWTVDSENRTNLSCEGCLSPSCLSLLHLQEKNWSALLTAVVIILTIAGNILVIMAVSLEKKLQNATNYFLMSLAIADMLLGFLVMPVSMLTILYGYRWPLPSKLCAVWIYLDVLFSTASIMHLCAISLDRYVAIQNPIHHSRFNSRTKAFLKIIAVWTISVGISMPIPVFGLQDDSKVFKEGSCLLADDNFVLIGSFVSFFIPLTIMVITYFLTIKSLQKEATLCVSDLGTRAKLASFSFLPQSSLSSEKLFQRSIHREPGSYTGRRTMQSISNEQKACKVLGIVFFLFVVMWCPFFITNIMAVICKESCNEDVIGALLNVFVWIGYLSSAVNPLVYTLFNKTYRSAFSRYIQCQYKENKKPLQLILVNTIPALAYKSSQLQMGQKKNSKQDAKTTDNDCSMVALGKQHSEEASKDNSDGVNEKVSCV
- Condition Set: NIH3T3, read-out: h5-HT2A Activation efficacy max ± SD, relative to 5-HT = 100%
Quantity Name: Emax

Some entries whose results are on file:
COc1cc(CCN)cc(OC)c1OC(F)F: 85 to 94%
COc1cc(CCN)cc(OC)c1OCC(F)(F)F: 44 to 78%
CCCOc1c(OC)cc(CC(C)N)cc1OC (stereo not drawn): 86 to 102%
CCOc1c(OC)cc(CC(C)N)cc1OC (stereo not drawn): 86 to 102%
COc1cc(CCN)cc(OC)c1OC1CC1: 85 to 94%

For each listed entry, give its Emax.
1. COc1cc(CCN)cc(OC)c1OCCCF
2. COc1cc(CCN)cc(OC)c1OCC(F)F
3. COc1cc(CC(C)N)cc(OC)c1OC (stereo not drawn)
4. COc1cc(CCN)cc(OC)c1OCCF
5. C=C(C)COc1c(OC)cc(CCN)cc1OC

Result ::
["85 to 94%", "44 to 78%", "40 to 73%", "85 to 94%", "85 to 94%"]

Each molecule below has a recorded value; state its Emax.
1. COc1cc(CC(C)N)cc(OC)c1OCC(F)F (stereo not drawn)
2. COc1cc(CC(C)N)cc(OC)c1OCCF (stereo not drawn)

Result ::
1: 86 to 102%; 2: 86 to 102%

----------
// endpoint Ki / system h5-HT1A receptor (Homo sapiens)
One number for each entry, in µM.

Completed entries (count: 3):
COc1cc(CCN)cc(OC)c1OC: 6.7
COc1cc(CCN)cc(OC)c1OCc1ccccc1: 4.4
COc1cc(CCN)cc(OC)c1OC(F)(F)F: 2.2

Okay, now this compound:
Query :: Consider the compound C=C(C)COc1c(OC)cc(CCN)cc1OC and give its measured Ki.
Result :: 5.1

----------
- Subject Of Test: hα2A adrenergic receptor (Homo sapiens)
- Construct: expressed in transfected cells; host or cells: Chinese hamster lung cells (membrane preparations)
- Sequence (P08913 whole entry): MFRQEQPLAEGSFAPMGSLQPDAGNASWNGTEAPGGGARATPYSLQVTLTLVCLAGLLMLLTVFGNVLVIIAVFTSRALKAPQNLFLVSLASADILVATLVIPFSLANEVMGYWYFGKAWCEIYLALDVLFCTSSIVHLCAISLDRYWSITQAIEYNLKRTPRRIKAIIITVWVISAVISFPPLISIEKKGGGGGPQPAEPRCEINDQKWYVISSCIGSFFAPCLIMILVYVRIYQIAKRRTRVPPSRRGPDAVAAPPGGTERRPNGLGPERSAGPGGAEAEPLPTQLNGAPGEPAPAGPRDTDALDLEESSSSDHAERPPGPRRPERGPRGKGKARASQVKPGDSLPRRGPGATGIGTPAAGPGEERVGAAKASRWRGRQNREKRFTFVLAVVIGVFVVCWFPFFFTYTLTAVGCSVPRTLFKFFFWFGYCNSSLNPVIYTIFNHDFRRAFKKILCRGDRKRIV
- Assay Overview: Radioligand binding at hα2A adrenergic receptor ([3H]rauwolscine)
Quantity Name: Ki (nM)
Give bare numbers, in nM.

Use the examples below as a reference point.
COc1cc(CCN)cc(OC)c1OCc1ccccc1 [compound 33, 4-benzyloxy-3,5-dimethoxyphenethylamine]: 2300
CCCOc1c(OC)cc(CC(C)N)cc1OC (stereo not drawn) [compound 28, 3,5-dimethoxy-4-propyloxyamphetamine]: 4600

Please supply Ki for each of the following items, keeping them in order.
1. COc1cc(CC(C)N)cc(OC)c1OC (stereo not drawn) [compound 6, 3,4,5-trimethoxyamphetamine]
2. COc1cc(CCN)cc(OC)c1OC [compound 5, 3,4,5-trimethoxyphenethylamine]
3. COc1cc(CCN)cc(OC)c1OCCF [compound 16]
4. COc1cc(CCN)cc(OC)c1OC1CC1 [compound 29]
5. COc1cc(CCN)cc(OC)c1OC(F)(F)F [compound 13]
6. COc1cc(CC(C)N)cc(OC)c1OC(F)F (stereo not drawn) [compound 14]

Result ::
1. 4030
2. 2000
3. 3700
4. 1200
5. 450
6. 2600

Query :: Given the entry COc1cc(CCN)cc(OC)c1OCC(F)F [compound 17] , what Ki was observed with hα2A adrenergic receptor (Homo sapiens)?
Result :: 2700

----------
Kindly supply the reported Ki values for the records listed here.
- Subject Of Test: h5-HT2A receptor (Homo sapiens, UniProt P28223)
- Construct: expressed in transfected cells; host or cells: HEK 293 cells (membrane preparations)
- Sequence (P28223 whole entry): as the sequence (P28223 whole entry) above
- Assay Overview: Radioligand binding at h5-HT2A receptor ([3H]ketanserin)
- Condition Set: h5-HT2A Receptor binding Ki ± SD, [3H]ketanserin; mean ± SD

// below: answered compounds
COc1cc(CCN)cc(OC)c1OC(C)C: 6200 nM
C=C(C)COc1c(OC)cc(CCN)cc1OC: 550 nM

Would you mind listing Ki for each of the following compounds?
1. COc1cc(CCN)cc(OC)c1OC(CF)CF
2. COc1cc(CCN)cc(OC)c1OCCF
3. C=CCOc1c(OC)cc(CC(C)N)cc1OC (stereo not drawn)
4. COc1cc(CCN)cc(OC)c1OCc1ccccc1
5. COc1cc(CC(C)N)cc(OC)c1OCC(F)F (stereo not drawn)
6. COc1cc(CCN)cc(OC)c1OCC(F)F
7. COc1cc(CCN)cc(OC)c1OC(F)F

Result ::
1: > 12000 nM; 2: > 12000 nM; 3: 1100 nM; 4: 150 nM; 5: 1500 nM; 6: 2900 nM; 7: 3500 nM

# batch size: 3; output Ki per entry
1. COc1cc(CCN)cc(OC)c1OCCCF
2. COc1cc(CC(C)N)cc(OC)c1OCCF (stereo not drawn)
3. COc1cc(CCN)cc(OC)c1OCC(F)(F)F

Result ::
["9300 nM", "12000 nM", "1300 nM"]

----------
- Subject Of Test: mouse TAAR1 (Mus musculus)
- Construct: expressed in transfected cells; host or cells: HEK 293 cells (membrane preparations)
- Sequence (Q923Y8 whole entry): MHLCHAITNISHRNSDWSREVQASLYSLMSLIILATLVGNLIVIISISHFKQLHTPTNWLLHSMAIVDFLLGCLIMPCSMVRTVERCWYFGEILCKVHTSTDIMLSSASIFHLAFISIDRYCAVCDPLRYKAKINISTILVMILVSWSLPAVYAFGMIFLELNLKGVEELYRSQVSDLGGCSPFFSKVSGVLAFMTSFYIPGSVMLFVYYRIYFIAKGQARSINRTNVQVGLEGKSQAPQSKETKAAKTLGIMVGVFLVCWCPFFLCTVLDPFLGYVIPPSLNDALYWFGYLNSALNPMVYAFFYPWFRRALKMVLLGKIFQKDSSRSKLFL
- Assay Overview: Radioligand binding at mouse TAAR1 ([3H]RO5166017)
Kindly state Ki for each of the entries shown.

Worked cases, Ki given:
COc1cc(CCN)cc(OC)c1OCC(F)F [compound 17]: > 4.2 µM
COc1cc(CCN)cc(OC)c1OC1CC1 [compound 29]: > 4.2 µM
COc1cc(CCN)cc(OC)c1OC [compound 5, 3,4,5-trimethoxyphenethylamine]: > 4.2 µM
C=CCOc1c(OC)cc(CC(C)N)cc1OC (stereo not drawn) [compound 31, 4-allyloxy-3,5-dimethoxyamphetamine]: 3.3 µM
COc1cc(CCN)cc(OC)c1OCc1ccccc1 [compound 33, 4-benzyloxy-3,5-dimethoxyphenethylamine]: 2.4 µM

Query :: Checklist item: Ki tested on mouse TAAR1 (Mus musculus), entry COc1cc(CC(C)N)cc(OC)c1OC(F)F (stereo not drawn) [compound 14] , value?
Result :: 1 µM

----------
- Subject Of Test: human 5-HT2B receptor (Homo sapiens, UniProt P41595)
- Sequence (P41595 whole entry): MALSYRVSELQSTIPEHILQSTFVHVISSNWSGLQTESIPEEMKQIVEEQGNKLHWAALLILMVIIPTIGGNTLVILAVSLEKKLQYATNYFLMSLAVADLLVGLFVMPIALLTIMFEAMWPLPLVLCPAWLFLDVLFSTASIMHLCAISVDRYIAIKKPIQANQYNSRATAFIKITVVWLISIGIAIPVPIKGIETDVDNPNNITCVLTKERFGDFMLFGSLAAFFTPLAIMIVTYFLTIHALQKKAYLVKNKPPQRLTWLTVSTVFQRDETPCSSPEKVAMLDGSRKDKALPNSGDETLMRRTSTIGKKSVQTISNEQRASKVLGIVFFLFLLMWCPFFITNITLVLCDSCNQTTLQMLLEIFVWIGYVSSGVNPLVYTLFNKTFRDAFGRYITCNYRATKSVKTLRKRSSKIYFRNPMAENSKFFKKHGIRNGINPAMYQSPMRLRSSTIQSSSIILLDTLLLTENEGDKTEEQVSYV
- Condition Set: h5-HT2B Activation potency EC50 ± SD, HEK 293 cells, calcium FLIPR; mean ± SD
pEC50: −log10 of the molar value.
Quantity Name: pEC50

Worked cases, answers included:
COc1cc(CCN)cc(OC)c1OCCC(F)(F)F: < 5.00
COc1cc(CCN)cc(OC)c1OCCCF: < 5.00

Please state, for each entry, its recorded pEC50.
1. COc1cc(CCN)cc(OC)c1OC1CC1
2. COc1cc(CCN)cc(OC)c1OC(C)C
3. COc1cc(CCN)cc(OC)c1OC(F)F
4. CCOc1c(OC)cc(CC(C)N)cc1OC (centres unmarked)
5. COc1cc(CCN)cc(OC)c1OCc1ccccc1
6. C=CCOc1c(OC)cc(CC(C)N)cc1OC (centres unmarked)
7. COc1cc(CC(C)N)cc(OC)c1OCCF (centres unmarked)

Result ::
["< 5.00", "< 5.00", "< 5.00", 7.02, "< 5.00", "< 5.00", 6.10]

Answer for every listed entry: what is its pEC50? The entries follow.
1. COc1cc(CC(C)N)cc(OC)c1OC(F)F (centres unmarked)
2. COc1cc(CCN)cc(OC)c1OC(CF)CF

Result ::
6.82
< 5.00

----------
- Subject Of Test: human 5-HT2A receptor (Homo sapiens)
Please assign a class to every record based on measured EC50, with ranges low bin (below 200 nM), mid bin (200 nM to below 2000 nM), high bin (2000 nM or more)

COc1cc(CCN)cc(OC)c1OCC(F)(F)F: mid bin
COc1cc(CC(C)N)cc(OC)c1OC(F)F (stereo not shown): low bin
COc1cc(CCN)cc(OC)c1OC(C)C: mid bin
C=C(C)COc1c(OC)cc(CCN)cc1OC: low bin

Query :: Which bin, given its EC50, does COc1cc(CCN)cc(OC)c1OCc1ccccc1 occupy?
Result :: low bin

Query :: Another: COc1cc(CCN)cc(OC)c1OCCC(F)(F)F
Result :: high bin

Query :: Moving on to the next compound: C=CCOc1c(OC)cc(CC(C)N)cc1OC (stereo not shown)
Result :: low bin

Query :: What would you report for COc1cc(CCN)cc(OC)c1OC1CC1 ?
Result :: high bin

Query :: Item: COc1cc(CC(C)N)cc(OC)c1OCCF (stereo not shown)
Result :: low bin

Query :: And then COc1cc(CC(C)N)cc(OC)c1OCC(F)F (stereo not shown) , what is it?
Result :: low bin

Query :: Same read-out for CCCOc1c(OC)cc(CC(C)N)cc1OC (stereo not shown) ?
Result :: low bin

Query :: Then what about the compound CCOc1c(OC)cc(CC(C)N)cc1OC (stereo not shown) ?
Result :: low bin

Query :: Same question, COc1cc(CCN)cc(OC)c1OC(F)F this time
Result :: mid bin

Query :: Same read-out for COc1cc(CCN)cc(OC)c1OCCF ?
Result :: high bin

Query :: Repeat with COc1cc(CCN)cc(OC)c1OCCCF
Result :: high bin

Query :: Let us now turn to COc1cc(CCN)cc(OC)c1OC(F)(F)F
Result :: mid bin

Query :: Another compound to check: COc1cc(CC(C)N)cc(OC)c1OCCCF (stereo not shown)
Result :: low bin

Query :: Next record, please: COc1cc(CCN)cc(OC)c1OCC(F)F
Result :: mid bin

Query :: Try this compound next: COc1cc(CC(C)N)cc(OC)c1OC (stereo not shown)
Result :: mid bin
